Test system: TRPC4 (mouse), co-expressed with 5HT1a in HEK293
Assay: enhancement of serotonin-evoked TRPC4 response – cell-based, second counter screen, HEK293 TRPC4/5HT1a, Fluo-4, counter-screen for TRPC4 potentiator project, confirmation (AID 434979)
Details: Fluo-4 calcium flux, at 10 µM, serotonin added at its EC20 dose; active compounds read high
Active and inactive are the calls of the source.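 The calls were made as follows: active = signal rise over 3 SD above mean of control wells given weak agonist, in both repeats and first screen; inactive = the rest.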
Property: potentiation

Consider the reported potentiation for these compounds:
1) O=C(CN1CCCC1)N1c2ccccc2Sc2ccc(C(F)(F)F)cc21; inactive
2) c1ccc(Cc2nc3ccccc3n2Cc2ccccc2)cc1; inactive
3) CCCCN(CC)CCNC(=O)c1ccc2c(Cl)c3c(nc2c1)CCC3; inactive
4) CCOC(=O)C1=NNC(C(=O)c2ccc(Cl)cc2)C1c1ccc(OC)cc1 (stereo unspecified); 8.48% (active)
5) CC(CCc1ccc(O)cc1)N(C)CCc1ccccc1 (stereo unspecified); inactive
6) COc1cc(CNC2CCCC2)cc(Cl)c1OCc1ccc(F)cc1; inactive

Please give potentiation, item by item, for the list that follows.
1. O=[N+]([O-])c1ccc(N2CCCC2)nc1N1CCCC1
2. Cc1[nH]nc(-c2ccc(O)cc2O)c1-c1ccc(Cl)cc1
3. O=C1/C(=C\c2cc([N+](=O)[O-])ccc2O)SC(=S)N1Cc1ccc(Cl)cc1
4. COc1ccc(F)cc1CN1CCN(C(=O)CCC(=O)Nc2nnc(C(C)C)s2)CC1
5. O=C(Nc1ccccc1N1CCN(C(=O)c2ccccc2)CC1)c1ccc(Br)o1

Ans.
["inactive", "inactive", "21% (active)", "inactive", "inactive"]

Please give potentiation, item by item, for the list that follows.
1. O=C(CN1CCCN(S(=O)(=O)c2ccc(F)cc2)CC1)Nc1ccccc1Br
2. NC(N)=NN=C1CCC(c2ccccc2)CC1 (stereo unspecified)
3. Cc1ccc(C)c(OCCCCN2CCNCC2)c1C
4. O=C(NC1CCCN(Cc2ccc(Cl)cc2)C1)C1CCC1 (stereo unspecified)
5. Cc1c(CCOC(=O)CC23CC4CC(CC(C4)C2)C3)sc[n+]1Cc1ccccc1
6. COc1cc2c(cc1OC)C(C)N(CCc1ccc(Cl)cc1)CC2 (stereo unspecified)

Ans.
1. inactive
2. inactive
3. 29.4% (active)
4. inactive
5. inactive
6. inactive

Please give potentiation, item by item, for the list that follows.
1. Cn1c(=O)c2c(nc(CN3CCc4ccccc4C3)n2Cc2ccc(F)cc2)n(C)c1=O
2. CCCCc1ccc(NC(=O)CSc2nnc(C)c(=O)n2N)cc1
3. O=C(O)c1nn(CC(=O)N2CCN(c3ncc(C(F)(F)F)cc3Cl)CC2)c(=O)c2ccccc12
4. COc1ccc(C(CNC(=O)C2CC2)N(C)C)cc1 (stereo unspecified)
5. COc1cccc(Cn2c(Oc3ccccc3)nc3c2c(=O)n(C)c(=O)n3C)c1
6. Cc1ccccc1NC(=S)NCC(c1cccnc1)N(C)C (stereo unspecified)

Ans.
1: 59.5% (active); 2: 43.5% (active); 3: inactive; 4: inactive; 5: inactive; 6: inactive

Please give potentiation, item by item, for the list that follows.
1. Cc1ccc(NC(=O)CNCC(c2ccccc2)N(C)C)cc1F (stereo unspecified)
2. CCN(CCCNC(=O)CCCOc1cc(=O)n(C)c2ccccc12)Cc1ccccc1
3. Cc1oc(-c2ccc(Cl)cc2)nc1CN1CCC(C(=O)NCc2cccs2)CC1
4. Cc1ccc(NC(=O)CN2CCc3ccccc3C2)cc1S(=O)(=O)N1CCOCC1
5. CCN(C(=O)c1cc2c(s1)-c1ccccc1OC2)c1cc(OC)ccc1OC
6. CCCCN(CCCC)/C(N)=N/c1nc(C)cc(C)n1
7. Cc1ccc(OCCn2c(C)nc3ccccc32)cc1

Ans.
1. inactive
2. 16.1% (active)
3. inactive
4. inactive
5. inactive
6. inactive
7. inactive

Please give potentiation, item by item, for the list that follows.
1. Cc1cccc(C)c1NC(=O)NCCCN1CCN(c2ccccc2)CC1
2. CCOC(=O)C1(CC2CCCCO2)CCN(Cc2cc(F)ccc2-n2cccn2)CC1 (stereo unspecified)
3. Cc1nn(C)c(C)c1Sc1ccc(Br)cc1
4. CCCCCCCCCCOC(=O)Cn1c(COc2ccccc2)[n+](C)c2ccccc21
5. CCc1nc2ccccc2n1Cc1ccccc1OC

Ans.
1: inactive; 2: inactive; 3: inactive; 4: inactive; 5: inactive

Please give potentiation, item by item, for the list that follows.
1. COc1ccc(CCNCC(O)COc2ccc(OC)cc2C(C)(C)C)cc1 (stereo unspecified)
2. Cc1cc2nc(CSc3ccc(Cl)cc3)cc(=O)n2[nH]1

Ans.
1: inactive; 2: inactive

Please give potentiation, item by item, for the list that follows.
1. c1ccc(Cn2nnnc2C(c2cccnc2)N2CCN(C3CCCCC3)CC2)cc1 (stereo unspecified)
2. NC(=S)N/N=C1/CCSc2ccc3ccccc3c21
3. Cn1cc(CN2CCCCC2CO)c(-c2ccc(Oc3ccccc3)cc2)n1 (stereo unspecified)
4. Cc1cc2oc(C(=O)N(Cc3ccccc3)C3CCS(=O)(=O)C3)cc(=O)c2cc1Cl (stereo unspecified)

Ans.
1. inactive
2. 18.7% (active)
3. inactive
4. 68.1% (active)

Please give potentiation, item by item, for the list that follows.
1. CCOC(=O)c1c(NC(=O)C2CC(Cl)=CCC2C(=O)O)sc2c1CCCCC2 (stereo unspecified)
2. CC(C)=CCN1CCN(Cc2cccc3nonc23)CC1CCO (stereo unspecified)
3. Clc1ccc(CN2C3=NCCN3c3ccccc32)cc1Cl
4. Cc1ccccc1C(=O)NC1CC2CCC(C1)N2Cc1ccccc1 (stereo unspecified)
5. Fc1ccc2c(c1)C(c1ccncc1)=NNC(c1ccc(Cl)cc1)=N2

Ans.
1. inactive
2. inactive
3. inactive
4. inactive
5. inactive
